# measured_target: TAAR1 (Mus musculus (Mouse))
# Sequence (Q923Y8 whole entry): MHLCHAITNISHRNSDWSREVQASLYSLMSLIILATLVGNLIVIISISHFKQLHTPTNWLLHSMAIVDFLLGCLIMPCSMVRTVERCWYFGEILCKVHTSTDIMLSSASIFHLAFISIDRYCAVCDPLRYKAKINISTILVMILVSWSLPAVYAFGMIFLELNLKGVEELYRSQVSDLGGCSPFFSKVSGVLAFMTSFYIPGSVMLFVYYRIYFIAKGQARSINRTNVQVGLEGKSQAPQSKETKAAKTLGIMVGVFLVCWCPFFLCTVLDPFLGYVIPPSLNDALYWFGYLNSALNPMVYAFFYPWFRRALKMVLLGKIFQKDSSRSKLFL
# experimental_protocol: Radioligand binding assay on TAAR1 (membranes of stably transfected HEK293 cells)
# measurement_setup: competition with [3H]-rac-2-(1,2,3,4-tetrahydro-1-naphthyl)-2-imidazoline, 4° C., 30 min
measured_metric: Ki (µM)

Answered cases to consult:
molecule	value_unit	Ki
NC1=N[C@@H](CCC2(c3ccc(F)c(F)c3)CC2)CO1	µM	0.0014
CC(OC[C@H]1COC(N)=N1)c1ccccc1 (stereo partly drawn)	µM	0.0084
NC1=N[C@@H](CCOc2cccc(OC(F)(F)F)c2)CO1	µM	0.0021
NC1=N[C@@H](CCC2(c3cc(F)cc(Cl)c3)CC2)CO1	µM	0.0009
C[C@@H](C[C@H]1COC(N)=N1)Oc1ccc(F)cc1	µM	0.0076

P. C[C@@H](C[C@H]1COC(N)=N1)Oc1cccc(Cl)c1
Q. C[C@H](C[C@H]1COC(N)=N1)Oc1ccc(F)c(Cl)c1
Ki comparison. Which is larger, P or Q ? State your choice using its label. Q
(Q: 0.0059 µM, P: 0.0012 µM)
